The reported measurements were obtained from patent US9346761B2.

The next entries give measured IC50 for UniProt:Q96LA8.
Sequence (Q96LA8 with tags, fused parts or gaps): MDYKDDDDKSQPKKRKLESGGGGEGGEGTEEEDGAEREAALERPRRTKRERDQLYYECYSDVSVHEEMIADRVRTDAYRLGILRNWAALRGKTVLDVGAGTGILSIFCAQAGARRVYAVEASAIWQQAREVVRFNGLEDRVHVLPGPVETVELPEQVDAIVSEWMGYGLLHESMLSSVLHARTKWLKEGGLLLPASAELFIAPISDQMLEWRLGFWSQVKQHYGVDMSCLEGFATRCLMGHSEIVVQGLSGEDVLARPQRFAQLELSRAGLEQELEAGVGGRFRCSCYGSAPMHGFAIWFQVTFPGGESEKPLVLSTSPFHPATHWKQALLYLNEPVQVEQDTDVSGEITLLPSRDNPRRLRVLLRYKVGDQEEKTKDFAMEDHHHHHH

Consider the worked cases shown below.
SMILES_STRUCTURE | STUDY_TARGET | REPORTED_ENDPOINT | RESULT
CNCCN(C)Cc1c(-c2ccc(OCCCOC)cc2)cnn1C | UniProt:Q96LA8 | IC50 | 1010 to 3000 nM
CNCCN(C)Cc1n[nH]cc1-c1cc(OC(C)C)cc(C(C)C)c1 | UniProt:Q96LA8 | IC50 | 1010 to 3000 nM
COc1ccc(-c2n[nH]cc2CN(C)CCN)cc1 | UniProt:Q96LA8 | IC50 | < 100 nM
CNCCN(C)Cc1c[nH]nc1-c1ccc(Oc2cccc(C(=O)NC)c2)cc1 | UniProt:Q96LA8 | IC50 | < 100 nM
CN(CCN)Cc1c[nH]nc1-c1ccc(C(F)(F)F)cc1C(F)(F)F | UniProt:Q96LA8 | IC50 | 101 to 1000 nM
CN(CCN)Cc1c[nH]nc1-c1ccc(OC2CC2)cc1 | UniProt:Q96LA8 | IC50 | < 100 nM
CN(CCN)Cc1c[nH]nc1-c1cc(C#N)ccc1Cl | UniProt:Q96LA8 | IC50 | < 100 nM
CNCCN(C)Cc1cnn(CC(=O)OC)c1-c1ccc(OC(C)C)cc1 | UniProt:Q96LA8 | IC50 | 101 to 1000 nM
CN(CCN)Cc1c[nH]nc1-c1cc(Cl)ccc1F | UniProt:Q96LA8 | IC50 | < 100 nM

Kindly review the next compound as well.
Query :: Please give the measured IC50 for this compound: CN(CCN)Cc1c[nH]nc1-c1ccccc1
Result :: < 100 nM
